# reported IC50; entries follow
biological target: UniProt:O08914; experiment: In Vitro Competitive Activity-Based Protein Profiling: Proteomes (mouse brain membrane fraction or cell lysates for mouse assays; human prefrontal cortex or cell membrane fractions for human assays) (50 μL, 1.0 mg/mL total protein concentration) were preincubated with varying concentrations of inhibitors at 37° C. After 30 min, FP—Rh or HT-01 (1.0 μL, 50 μM in DMSO) was added and the mixture was incubated for another 30 min at 37° C. Reactions were quenched with SDS loading buffer (15 μL-4×) and run on SDS-PAGE. Following gel imaging, serine hydrolase activity was determined by measuring fluorescent intensity of gel bands corresponding to MAGL and FAAH using ImageJ 1.43u software.Preparation of Mouse Brain Proteomes from Inhibitor Treated Mice.Inhibitors were administered to wild-type C57Bl/6J by oral gavage in a vehicle of polyethylene glycol. Each animal was sacrificed 4 h following administration and brain proteomes were prepared and analyzed according to previously established methods (See Niphakis, M. J., et al. (2011) ACS Chem. Neurosci. and Long, J. Z., et al. Nat. Chem. Biol. 5:37-44).
Sequence (O08914 whole entry): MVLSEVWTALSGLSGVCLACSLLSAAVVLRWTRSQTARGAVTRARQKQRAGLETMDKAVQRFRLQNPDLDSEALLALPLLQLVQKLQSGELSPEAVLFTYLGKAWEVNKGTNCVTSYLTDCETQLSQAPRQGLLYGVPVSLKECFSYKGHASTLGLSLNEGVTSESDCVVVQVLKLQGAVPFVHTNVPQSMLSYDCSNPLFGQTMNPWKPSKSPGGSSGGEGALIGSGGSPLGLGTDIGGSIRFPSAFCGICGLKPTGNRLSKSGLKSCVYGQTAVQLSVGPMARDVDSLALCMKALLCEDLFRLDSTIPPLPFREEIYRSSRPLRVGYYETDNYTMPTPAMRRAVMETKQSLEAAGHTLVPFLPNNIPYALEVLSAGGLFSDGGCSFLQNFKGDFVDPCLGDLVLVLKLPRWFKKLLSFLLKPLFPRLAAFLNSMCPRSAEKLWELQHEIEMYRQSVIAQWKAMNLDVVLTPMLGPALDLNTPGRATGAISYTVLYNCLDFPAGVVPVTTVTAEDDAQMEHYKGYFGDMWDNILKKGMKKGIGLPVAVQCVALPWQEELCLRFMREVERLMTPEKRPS

Molecule	IC50
CC(=O)N(C)c1cnn(C(=O)N2CC3CN(Cc4cccc(Oc5ccccn5)c4)CC3C2)c1 (configuration not stated)	< 100 nM
CC(=O)N(C)c1cnn(C(=O)N2CC3CN(Cc4cc(Cl)cc(N5CCC6(CCOCC6)C5)c4)CC3C2)c1 (configuration not stated)	< 100 nM
